Recorded AC50, one value per entry.
study target: Glucocorticoid receptor (Homo sapiens, UniProt P04150); also: assay procedure not described here
Sequence (P04150 whole entry): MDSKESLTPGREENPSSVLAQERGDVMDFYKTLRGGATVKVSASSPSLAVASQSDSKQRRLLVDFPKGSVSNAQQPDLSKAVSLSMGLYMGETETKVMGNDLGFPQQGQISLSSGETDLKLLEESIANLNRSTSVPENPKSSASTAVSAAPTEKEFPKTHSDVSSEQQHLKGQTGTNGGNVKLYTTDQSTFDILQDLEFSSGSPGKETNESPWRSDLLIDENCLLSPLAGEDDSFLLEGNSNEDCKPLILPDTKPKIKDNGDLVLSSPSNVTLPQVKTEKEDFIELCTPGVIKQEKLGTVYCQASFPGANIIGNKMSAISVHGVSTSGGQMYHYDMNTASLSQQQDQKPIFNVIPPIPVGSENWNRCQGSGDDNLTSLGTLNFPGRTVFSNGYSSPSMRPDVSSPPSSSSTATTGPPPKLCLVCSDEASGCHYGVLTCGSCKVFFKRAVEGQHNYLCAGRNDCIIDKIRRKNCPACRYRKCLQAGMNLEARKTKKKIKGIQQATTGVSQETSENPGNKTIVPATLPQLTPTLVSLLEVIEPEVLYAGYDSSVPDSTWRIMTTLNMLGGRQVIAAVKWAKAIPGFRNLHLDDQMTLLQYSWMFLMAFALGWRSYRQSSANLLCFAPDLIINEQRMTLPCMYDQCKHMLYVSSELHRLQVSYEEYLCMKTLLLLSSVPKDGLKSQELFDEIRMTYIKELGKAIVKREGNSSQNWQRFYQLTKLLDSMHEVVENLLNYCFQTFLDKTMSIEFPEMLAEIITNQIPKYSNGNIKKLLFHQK
endpoint label: AC50

{"compound": "Nc1nc(Cl)nc2c1ncn2[C@H]1C[C@H](O)[C@@H](CO)O1 [CLADRIBINE]", "result": "> 30 µM"}
{"compound": "CCCN1C[C@H](CSC)C[C@@H]2c3cccc4[nH]cc(c34)C[C@H]21 [PERGOLIDE]", "result": "> 30 µM"}
{"compound": "CC[C@H]1[C@@H](O)[C@@H]2[C@H](CC[C@]3(C)[C@@H]([C@H](C)CCC(=O)O)CC[C@@H]23)[C@@]2(C)CC[C@@H](O)C[C@@H]12 [OBETICHOLIC ACID]", "result": "> 30 µM"}
{"compound": "CO/N=C(\\C(=O)N[C@@H]1C(=O)N2C(C(=O)O)=C(CSc3nnnn3C)CS[C@H]12)c1csc(N)n1 [CEFMENOXIME]", "result": "> 30 µM"}
{"compound": "O=C(O)[C@H](CC(=O)N1C[C@H]2CCCC[C@H]2C1)Cc1ccccc1 [MITIGLINIDE]", "result": "> 10 µM"}
{"compound": "COC(=O)C1=C(C)NC(C)=C(C(=O)OC(C)(C)CN(C)CCC(c2ccccc2)c2ccccc2)C1c1cccc([N+](=O)[O-])c1 (stereo not drawn) [LERCANIDIPINE]", "result": "> 30 µM"}
{"compound": "Cc1cccc(C(C)c2cnc[nH]2)c1C (stereo not drawn) [MEDETOMIDINE]", "result": "> 30 µM"}
{"compound": "NC(=O)CN1CC(O)CC1=O (stereo not drawn) [OXIRACETAM]", "result": "> 30 µM"}
{"compound": "CN(C)CCc1c[nH]c2ccc(C[C@H]3COC(=O)N3)cc12 [ZOLMITRIPTAN]", "result": "> 30 µM"}
{"compound": "C[C@H](CSC(=O)c1ccccc1)C(=O)N1C[C@@H](Sc2ccccc2)C[C@H]1C(=O)O [ZOFENOPRIL]", "result": "> 10 µM"}
{"compound": "NS(=O)(=O)Cc1noc2ccccc12 [ZONISAMIDE]", "result": "> 10 µM"}
{"compound": "CC(C(=O)O)c1ccc(N2Cc3ccccc3C2=O)cc1 (stereo not drawn) [INDOPROFEN]", "result": "> 30 µM"}
{"compound": "CCCC(=O)O[C@]1(C(=O)CO)CC[C@H]2[C@@H]3CCC4=CC(=O)CC[C@]4(C)[C@H]3[C@@H](O)C[C@@]21C [HYDROCORTISONE BUTYRATE]", "result": "0.008 µM"}
{"compound": "CN(C)CC/C=C1\\c2ccccc2CSc2ccccc21 [DOTHIEPIN]", "result": "> 30 µM"}
{"compound": "O=C(O)CCCCCCNC1c2ccccc2CCc2ccccc21 [AMINEPTINE]", "result": "> 30 µM"}
{"compound": "C[C@]1(O)CC[C@H]2[C@@H]3CCC4=CC(=O)CC[C@]4(C)[C@@]3(F)[C@@H](O)C[C@@]21C [FLUOXYMESTERONE]", "result": "0.088 µM"}
{"compound": "O=C1Nc2ccc(Cl)cc2[C@@](C#CC2CC2)(C(F)(F)F)O1 [EFAVIRENZ]", "result": "2.71 µM"}
{"compound": "CCOC(=O)[C@H](CCc1ccccc1)N[C@@H](C)C(=O)N1[C@H](C(=O)O)C[C@@H]2CCC[C@@H]21", "result": "> 30 µM"}
{"compound": "CC(Oc1c(Cl)cccc1Cl)C1=NCCN1 (stereo not drawn) [LOFEXIDINE]", "result": "> 30 µM"}
{"compound": "COc1cc2nc(N3CCN(C(=O)c4ccco4)CC3)nc(N)c2cc1OC [PRAZOSIN]", "result": "> 30 µM"}
{"compound": "Cc1ccc(-n2nccn2)c(C(=O)N2CCN(c3nc4cc(Cl)ccc4o3)CC[C@H]2C)c1 [SUVOREXANT]", "result": "> 30 µM"}
{"compound": "CO[C@@H]1[C@@H](O[C@@H]2O[C@H](C)[C@@H](O[C@H]3C[C@@](C)(O)[C@@H](OC(=O)CC(C)C)[C@H](C)O3)[C@H](N(C)C)[C@H]2O)[C@@H](CC=O)C[C@@H](C)[C@@H](O)/C=C/C=C/C[C@@H](C)OC(=O)C[C@H]1OC(C)=O [JOSAMYCIN]", "result": "> 10 µM"}
{"compound": "CC1=C(C(=O)O)N2C(=O)[C@@H](NC(=O)[C@H](N)c3ccccc3)[C@H]2SC1 [CEPHALEXIN ANHYDROUS]", "result": "> 30 µM"}
{"compound": "Cc1cn([C@H]2C[C@H](N=[N+]=[N-])[C@@H](CO)O2)c(=O)[nH]c1=O [ZIDOVUDINE]", "result": "> 30 µM"}
{"compound": "C[C@@H]1O[C@@H](O[C@@H]2C=C3CC[C@@H]4[C@H](CC[C@]5(C)[C@@H](c6ccc(=O)oc6)CC[C@]45O)[C@@]3(C)CC2)[C@H](O)[C@H](O)[C@H]1O [PROSCILLARIDIN]", "result": "> 30 µM"}
{"compound": "C#C[C@]1(O)CC[C@H]2[C@@H]3CCC4=Cc5oncc5C[C@]4(C)[C@H]3CC[C@@]21C [DANAZOL]", "result": "0.111 µM"}
{"compound": "COc1cc2nc(N(C)CCCNC(=O)C3CCCO3)nc(N)c2cc1OC (stereo not drawn) [ALFUZOSIN]", "result": "> 30 µM"}
{"compound": "Clc1ccc(C(c2ccccc2Cl)C(Cl)Cl)cc1 (stereo not drawn) [MITOTANE]", "result": "1.4 µM"}
{"compound": "NCC(=O)CCC(=O)O [AMINOLEVULINIC ACID]", "result": "> 30 µM"}
{"compound": "CC(C)Cn1cnc2c(N)nc3ccccc3c21 [IMIQUIMOD]", "result": "> 10 µM"}
{"compound": "CN1C(=O)OC(C)(C)C1=O [TRIMETHADIONE]", "result": "> 10 µM"}
{"compound": "Clc1ccc(CCCOCCCN2CCCCC2)cc1 [PITOLISANT]", "result": "> 30 µM"}
{"compound": "Cc1c(OCC(F)(F)F)ccnc1C[S+]([O-])c1nc2ccccc2[nH]1 (stereo not drawn) [LANSOPRAZOLE]", "result": "> 30 µM"}

====

study target: Gamma-aminobutyric acid receptor subunit alpha-1 (Rattus norvegicus, UniProt P62813); also: assay procedure not described here
Sequence (P62813 whole entry): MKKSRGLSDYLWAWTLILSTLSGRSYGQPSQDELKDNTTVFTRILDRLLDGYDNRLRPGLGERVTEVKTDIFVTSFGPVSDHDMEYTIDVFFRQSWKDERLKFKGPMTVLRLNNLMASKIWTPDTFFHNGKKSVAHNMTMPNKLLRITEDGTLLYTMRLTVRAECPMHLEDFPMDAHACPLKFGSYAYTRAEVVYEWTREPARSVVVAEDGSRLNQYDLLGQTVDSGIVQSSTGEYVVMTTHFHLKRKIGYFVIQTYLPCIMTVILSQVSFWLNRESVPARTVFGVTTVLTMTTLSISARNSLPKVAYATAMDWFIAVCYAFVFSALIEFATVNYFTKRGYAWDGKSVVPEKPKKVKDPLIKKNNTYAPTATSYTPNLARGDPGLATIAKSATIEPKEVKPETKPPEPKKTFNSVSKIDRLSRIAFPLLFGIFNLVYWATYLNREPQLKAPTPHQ
Recorded AC50, one value per entry.

{"compound": "CC[C@]1(O)C[C@H]2CN(CCc3c([nH]c4ccccc34)[C@@](C(=O)OC)(c3cc4c(cc3OC)N(C=O)[C@H]3[C@@](O)(C(=O)OC)[C@H](OC(C)=O)[C@]5(CC)C=CCN6CC[C@]43[C@@H]65)C2)C1", "AC50": "> 30 µM"}
{"compound": "O=C(O)c1ccccc1C(=O)Nc1ccc(S(=O)(=O)Nc2nccs2)cc1", "AC50": "> 30 µM"}
{"compound": "CC(CNC(=O)c1ccccc1)C(=O)OCC(=O)[C@@]12OC(C)(C)O[C@@H]1C[C@H]1[C@@H]3CCC4=CC(=O)C=C[C@]4(C)[C@@]3(F)[C@@H](O)C[C@@]12C (some centres undefined) [TRIAMCINOLONE BENETONIDE]", "AC50": "> 30 µM"}
{"compound": "CC[C@H]1OC(=O)[C@H](C)[C@@H](O[C@H]2C[C@@](C)(OC)[C@@H](O)[C@H](C)O2)[C@H](C)[C@@H](O[C@@H]2O[C@H](C)C[C@H](N(C)C)[C@H]2O)[C@](C)(O)C[C@@H](C)CN(C)[C@H](C)[C@@H](O)[C@]1(C)O", "AC50": "> 30 µM"}
{"compound": "OC(c1ccccc1)(c1ccccc1)C12CC[N+](CCOCc3ccccc3)(CC1)CC2", "AC50": "> 30 µM"}
{"compound": "CN(C)CCn1nnnc1SCC1=C(C(=O)O)N2C(=O)[C@@H](NC(=O)Cc3csc(N)n3)[C@H]2SC1", "AC50": "> 30 µM"}
{"compound": "CCCCS(=O)(=O)N[C@@H](Cc1ccc(OCCCCC2CCNCC2)cc1)C(=O)O", "AC50": "> 30 µM"}
{"compound": "COc1cc2nc(N3CCN(C(=O)c4ccco4)CC3)nc(N)c2cc1OC", "AC50": "> 30 µM"}
{"compound": "Cc1cn([C@H]2C=C[C@@H](CO)O2)c(=O)[nH]c1=O", "AC50": "> 30 µM"}
{"compound": "NC(=O)C[C@H](N)C(=O)O", "AC50": "> 30 µM"}
{"compound": "O=C(Oc1ccc2c(c1)CCCN2C(=O)C(Cl)Cl)c1ccco1 [QUINFAMIDE]", "AC50": "> 30 µM"}
{"compound": "COC1=C(OC)C(=O)C(C/C=C(\\C)CC/C=C(\\C)CC/C=C(\\C)CC/C=C(\\C)CC/C=C(\\C)CC/C=C(\\C)CC/C=C(\\C)CC/C=C(\\C)CC/C=C(\\C)CCC=C(C)C)=C(C)C1=O", "AC50": "> 30 µM"}
{"compound": "C[N+](C)(C)CCO", "AC50": "> 30 µM"}
{"compound": "Cc1cc(C#N)cc(C)c1Oc1nc(Nc2ccc(C#N)cc2)nc(N)c1Br", "AC50": "> 30 µM"}
